molecular target: r-wtGNE (hGNE1; recombinant wild type GNE) (Homo sapiens); construct: recombinant full-length GNE; test: SPR, GNE immobilised on gold chip
Sequence (Q9Y223 whole entry): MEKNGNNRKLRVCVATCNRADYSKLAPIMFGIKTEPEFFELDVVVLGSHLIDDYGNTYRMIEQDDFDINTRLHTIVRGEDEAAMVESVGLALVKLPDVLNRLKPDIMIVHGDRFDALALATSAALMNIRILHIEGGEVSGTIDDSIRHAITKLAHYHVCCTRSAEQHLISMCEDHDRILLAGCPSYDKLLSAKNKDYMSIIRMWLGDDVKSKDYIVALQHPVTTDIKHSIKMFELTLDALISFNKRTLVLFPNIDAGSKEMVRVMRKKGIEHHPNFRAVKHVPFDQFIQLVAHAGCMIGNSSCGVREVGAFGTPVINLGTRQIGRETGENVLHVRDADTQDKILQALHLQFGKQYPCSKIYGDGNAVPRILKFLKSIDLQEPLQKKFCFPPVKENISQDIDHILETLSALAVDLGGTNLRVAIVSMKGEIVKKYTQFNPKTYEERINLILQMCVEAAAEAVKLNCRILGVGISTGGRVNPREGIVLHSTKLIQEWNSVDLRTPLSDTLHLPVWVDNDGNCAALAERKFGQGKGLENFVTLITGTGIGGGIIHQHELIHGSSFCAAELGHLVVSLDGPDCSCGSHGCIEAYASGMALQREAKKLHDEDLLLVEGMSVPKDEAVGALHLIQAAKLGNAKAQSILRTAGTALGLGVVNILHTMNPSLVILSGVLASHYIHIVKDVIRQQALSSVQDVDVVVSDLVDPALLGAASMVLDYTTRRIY
Property measured: Kd (mM)

[
  {
    "Compound": "C[C@H](C(=O)N[C@@H](Cc1ccccc1)[C@@H](O)CN1CCN(Cc2ccccc2)CC1)c1ccccc1 [LTC-181]",
    "Property measured": "Kd",
    "Observed value": 3
  }
]

The measured values listed here are drawn from paper PMC12673733.
